For each of the compounds below, state its pEC50.
- System: Human immunodeficiency virus 1
- test.protocol: Concentration required to achieve 50% protection of MT-4 cells against the cytopathic effect of HIV-1
- Type: functional, organism-based
- experimental.parameters: Human immunodeficiency virus 1, MT4
Give bare numbers, as −log10 of the molar value.

>>> print(df.to_string())
                                   compound           target_or_test_system  assay_metric  number
0  CC(=O)OC(c1ccn(S(=O)(=O)c2ccc(C)cc2)c1)c1ccc(Cl)cc1Cl (stereo not given)  Human immunodeficiency virus 1         pEC50    5.01
1  O=S(=O)(c1ccccc1)n1ccc(C(O)c2ccccc2)c1 (stereo not given)  Human immunodeficiency virus 1         pEC50    5.10
2  O=[N+]([O-])c1ccc(S(=O)(=O)n2ccc(C(O)c3ccc(Cl)cc3Cl)c2)cc1 (stereo not given)  Human immunodeficiency virus 1         pEC50    4.66
3  CCOC(=O)c1cc(C(O)c2ccc(Cl)cc2Cl)cn1S(=O)(=O)c1cc(Cl)ccc1N (stereo not given)  Human immunodeficiency virus 1         pEC50    4.80
4  Cc1ccc(S(=O)(=O)n2cc(C(O)c3ccc(Cl)cc3Cl)cc2C(=O)OC(C)C)cc1 (stereo not given)  Human immunodeficiency virus 1         pEC50    4.66
5  COc1ccc(C(O)c2ccn(S(=O)(=O)c3ccc(C)cc3)c2)cc1 (stereo not given)  Human immunodeficiency virus 1         pEC50    4.80
6  O=S(=O)(c1ccc(Cl)cc1)n1ccc(C(O)c2ccc(Cl)cc2Cl)c1 (stereo not given)  Human immunodeficiency virus 1         pEC50    5.36
7  Nc1ccc(S(=O)(=O)n2ccc(C(O)c3ccc(Cl)cc3Cl)c2)cc1 (stereo not given)  Human immunodeficiency virus 1         pEC50    4.96

Please give pEC50 for each item listed below.
1. Cc1cn([C@H]2C[C@H](N=[N+]=[N-])[C@@H](CO)O2)c(=O)[nH]c1=O [ZIDOVUDINE]
2. CCOC(=O)c1cc(C(O)c2ccc(Cl)cc2Cl)cn1S(=O)(=O)c1ccc(C)cc1 (stereo not given)

Data returned:
1: 8.00; 2: 4.85
